Tested on: RXF 631
Assay: NCI tumour cell line growth inhibition, 48 h
Active and inactive are the calls of the source. Cut-off read from the data, not from the text of the source: active = GI50 up to about 1.1 µM and inactive = higher. Peptide text beside a SMILES is read from it.
Please answer using one outcome listed in YES (active), NO (inactive)

# count of solved cases: 5
>  <molecule>
CCOC(=O)c1ccc(N[C@@H]2c3cc4c(cc3C(C3=CC(=O)C(=O)C(OC)=C3)[C@H]3C(=O)OCC32)OCO4)cc1 (some centres not stated)

>  <assigned-class>
NO

$$$$
>  <molecule>
Oc1ccccc1/C=N/Cc1ccco1

>  <assigned-class>
NO

$$$$
>  <molecule>
O=Cc1cn(S(=O)(=O)c2ccccc2)c2ccccc12

>  <assigned-class>
NO

$$$$
>  <molecule>
C[N+](C)(C)CC(=O)N/N=c1\cc(C(=O)Nc2ccc(N=O)cc2C#N)oc2cc(O)ccc12

>  <assigned-class>
NO

$$$$
>  <molecule>
C=CCC1(CN(C)C)CC/C(=C\c2ccc(OC)cc2)C1=O (configuration not stated)

>  <assigned-class>
NO

$$$$

Inquiry: Kindly provide the recorded test outcome for the following molecule: COc1ccc(C(c2c(O)c3ccccc3n(C)c2=O)c2c(O)c3ccccc3n(C)c2=O)cc1
Reply text: NO

Inquiry: Kindly provide the recorded test outcome for the following molecule: O=C(Nc1cccc2ccccc12)Oc1ccccc1C1CCCCC1
Reply text: NO

Inquiry: Kindly provide the recorded test outcome for the following molecule: CC(C)CC(NC(=O)C(CC(C)C)NC(=O)C(Cc1c[nH]cn1)NC(=O)C(C)NC(=O)C(NC(=O)C(C)NC(=O)C(Cc1c[nH]c2ccccc12)NC(=O)C(CCC(=O)O)NC(=O)C(N)Cc1ccccc1)C(C)C)C(N)=O (configuration not stated) (H-FEWAVAHLL-NH2; configuration not given here)
Reply text: NO

The origin of these recorded values is ChEMBL document CHEMBL1201862.
